target: human TSHR (Homo sapiens, UniProt P16473); construct: expressed in transfected cells; assay: Homogeneous Time Resolved Fluorescence (HTRF) cAMP assay, TSHR cell line; assay type: cell-based; conditions: 100% activity = response of 30 mU/ml TSH, 0% = DMSO control; in %
Sequence (P16473 21-764): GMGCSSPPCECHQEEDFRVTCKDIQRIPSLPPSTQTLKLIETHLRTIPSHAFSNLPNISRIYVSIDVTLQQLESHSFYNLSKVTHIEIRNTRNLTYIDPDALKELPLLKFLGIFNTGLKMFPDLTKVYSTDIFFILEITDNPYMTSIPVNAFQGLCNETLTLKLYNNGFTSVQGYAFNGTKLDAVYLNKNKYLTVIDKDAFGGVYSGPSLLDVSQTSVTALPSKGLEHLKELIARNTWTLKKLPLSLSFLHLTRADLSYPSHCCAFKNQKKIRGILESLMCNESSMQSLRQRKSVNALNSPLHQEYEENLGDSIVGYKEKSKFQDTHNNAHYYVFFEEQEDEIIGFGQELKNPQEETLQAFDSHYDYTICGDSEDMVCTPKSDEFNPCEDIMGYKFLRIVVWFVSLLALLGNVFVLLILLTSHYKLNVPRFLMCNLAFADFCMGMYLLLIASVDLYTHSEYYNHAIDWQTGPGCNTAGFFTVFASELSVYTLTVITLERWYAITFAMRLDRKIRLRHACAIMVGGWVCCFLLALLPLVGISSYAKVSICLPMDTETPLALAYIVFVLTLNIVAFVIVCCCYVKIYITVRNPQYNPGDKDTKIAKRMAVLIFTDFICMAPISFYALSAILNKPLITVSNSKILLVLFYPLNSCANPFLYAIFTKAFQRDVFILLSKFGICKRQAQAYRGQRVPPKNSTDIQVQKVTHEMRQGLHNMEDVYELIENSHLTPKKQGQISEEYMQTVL
Property Label: Maximum Activity compared to TSH
Number, no unit, nothing else.

// known answers, use as guide
| Compound | Maximum Activity compared to TSH |
| --- | --- |
| COc1ccc(CN(Cc2ccccc2)C(=O)c2ccccc2N)cc1COc1ccc(NC(C)=O)cc1 [Structure 21] | 236.35 |
| COc1ccc(C2N(Cc3ccccc3)C(=O)c3ccccc3N2C)cc1COc1ccc(NC(C)=O)cc1 (stereo not drawn) [Structure 84] | 47.53 |
| COc1ccc(C(=O)N(Cc2cccs2)Cc2cccs2)c(O)c1 [Structure 103] | 106.72 |
| COc1ccc(CN(Cc2ccccc2)C(=O)COC(C)=O)cc1COc1ccc(NC(C)=O)cc1 [Structure 236] | 32.00 |

Incoming: // Maximum Activity compared to TSH lookup, key: COc1ccc(C2Nc3ccccc3C(=O)N2Cc2ccccc2)cc1COc1ccc(NC(C)=O)cc1 (single isomer, unassigned) [Structure 37]
Outgoing: 104.22

Incoming: Then what about the compound COc1ccc(CN(Cc2ccccc2)C(=O)c2cccc(C#N)c2)cc1COc1ccc(NC(C)=O)cc1 [Structure 71] ?
Outgoing: 44.19

Incoming: Then what about the compound COc1ccc(C2Cc3ccccc3C(=O)N2Cc2ccccc2)cc1COc1ccc(NC(C)=O)cc1 (stereo not drawn) [Structure 76] ?
Outgoing: 64.77

----------
Target: human TSHR (Homo sapiens, UniProt P16473)
Construct: expressed in transfected cells
Experiment: Homogeneous Time Resolved Fluorescence (HTRF) cAMP assay, TSHR cell line
Assay type: cell-based
Details: read-out: Maximum Activity compared to TSH, 100% activity = response of 30 mU/ml TSH, 0% = DMSO control
Excerpt: Generation of Stable Cell-Lines Expressing TSHR, LHCGR or FSHR. cDNA for human TSHR was amplified by PCR from hTSHR-pSVL (1) and inserted into the pcDNA3.1(−)/hygromycin vector using restriction sites XhoI and BamHI. cDNA for human LHCGR was amplified by PCR from hLHR-pGS5 (2) and was inserted into the pcDNA3.1(+)/hygromycin vector using restriction sites BamHI and XhoI. […] Homogeneous Time Resolved Fluorescence (HTRF) cAMP Assay. […]
Here, each record is paired with measured Emax data.

// known answers, use as guide
| Compound | Emax |
| --- | --- |
| COc1ccc(C(=O)N(Cc2ccccc2)Cc2ccco2)c(O)c1 | 88.7% |
| COc1ccc(C2Nc3ccccc3C(=O)N2Cc2ccc(-c3ccccc3)cc2)cc1COc1ccc(NC(C)=O)cc1 (stereo not shown) | 36% |
| CCC(=O)Nc1ccc(OCc2cc(C3Nc4ccccc4C(=O)N3Cc3ccccc3)ccc2OC)cc1 (stereo not shown) | 29% |

Kindly consider the entry below.
Incoming: // Emax lookup, key: "COc1ccc(-c2nc3ccc(NC(=O)CO)cc3c(=O)n2Cc2cccc(Cl)c2)cc1COc1ccc(NC(C)=O)cc1"
Outgoing: 40%

----------
biological target: human TSHR (Homo sapiens, UniProt P16473); construct: expressed in transfected cells; assay: Homogeneous Time Resolved Fluorescence (HTRF) cAMP assay, TSHR cell line; assay type: cell-based; conditions: AC50, HTRF cAMP, TSHR cell line, 30 minute incubation
Property Label: AC50 (µM)
Could you give me the number in µM? Just the number is fine.

// known answers, use as guide
| Compound | Study System | AC50 (µM) |
| --- | --- | --- |
| COc1ccc(C2Nc3ccccc3C(=O)N2Cc2ccccc2)cc1COc1ccc(NC(C)=O)cc1 (single isomer, unassigned) [Structure 4] | human TSHR (Homo sapiens, UniProt P16473) | 7.08 |
| COc1ccc(C2Nc3ccccc3C(=O)N2Cc2ccccc2)cc1COc1ccc(NC(C)=O)cc1 (single isomer, unassigned) [Structure 25] | human TSHR (Homo sapiens, UniProt P16473) | 8.91 |

Kindly consider the entry below.
Incoming: // AC50 lookup, key: COc1ccc(C2Nc3ccccc3C(=O)N2Cc2ccccc2)cc1COc1ccc(NC(C)=O)cc1 (single isomer, unassigned) [Structure 24]
Outgoing: 7.08

----------
molecular target: human TSHR (Homo sapiens); construct: expressed in transfected cells; assay: Homogeneous Time Resolved Fluorescence (HTRF) cAMP assay, TSHR cell line; format: cell-based; conditions: HTRF cAMP, TSHR cell line, 30 minute incubation; read-out: AC50
Property Label: AC50 (µM)
Could you give me the number in µM? Just the number is fine.

Incoming: API: value(readout=AC50, system=human TSHR (Homo sapiens)) for record "COc1ccc(-c2nc3ccccc3c(=O)n2Cc2ccccc2)cc1CNc1ccc(NC(C)=O)cc1"
Outgoing: 15.8

Incoming: Then what about the molecule "COc1cccc(-c2nc(SC)nc3sc(C(=O)NC(C)(C)C)c(N)c23)c1" ?
Outgoing: 17.8

Incoming: Then what about the molecule COc1ccc(CN(Cc2ccccc2)C(=O)c2ccc(OC)cc2O)cc1 [Structure 136] ?
Outgoing: 28.2

----------
target: human TSHR (Homo sapiens, UniProt P16473); construct: expressed in transfected cells; test: Homogeneous Time Resolved Fluorescence (HTRF) cAMP assay, TSHR cell line; format: cell-based; conditions: HTRF cAMP, TSHR cell line, 30 minute incubation; read-out: AC50
Property Label: AC50 (µM)
Could you give me the number in µM? Just the number is fine.

| Compound | Readout Units | AC50 |
| --- | --- | --- |
| COc1ccc(-c2nc3ccccc3c(=O)n2Cc2ccco2)cc1COc1ccc(NC(C)=O)cc1 [Structure 47] | µM | 25.1 |
| COc1ccc(C2Nc3ccccc3C(=O)N2Cc2ccco2)cc1COc1ccc(NC(C)=O)cc1 (centres unmarked) [Structure 91] | µM | 15.8 |
| COc1ccc(C(=O)N(Cc2ccccc2)Cc2ccccc2)c(O)c1 [Structure 114] | µM | 25.1 |

Incoming: // AC50 lookup, key: COc1ccc(-c2nc3ccc(NC(=O)CO)cc3c(=O)n2Cc2cccc(Cl)c2)cc1COc1ccc(NC(C)=O)cc1 [Structure 80]
Outgoing: 22.4

Incoming: Then what about the compound COc1ccc(C2Nc3ccccc3C(=O)N2Cc2ccco2)cc1COc1ccc(NC(C)=O)cc1 (centres unmarked) [Structure 34] ?
Outgoing: 15.8

----------
target: human TSHR (Homo sapiens, UniProt P16473); construct: expressed in transfected cells; assay: Homogeneous Time Resolved Fluorescence (HTRF) cAMP assay, TSHR cell line; format: cell-based; conditions: HTRF cAMP, TSHR cell line, 30 minute incubation; read-out: AC50
Definition: the class of an entry is the range in bottom end: < 6 µM; midrange: ≥ 6 µM and < 20 µM; top end: ≥ 20 µM that contains its AC50.

| Compound | Study System | Discrete Label |
| --- | --- | --- |
| COc1ccc(C2Nc3ccccc3C(=O)N2Cc2ccc(Cl)cc2)cc1COc1ccc(NC(C)=O)cc1 (centres unmarked) [Structure 72] | human TSHR (Homo sapiens, UniProt P16473) | bottom end |
| COc1ccc(CN(Cc2ccccc2)C(=O)c2ccccc2O)cc1 [Structure 189] | human TSHR (Homo sapiens, UniProt P16473) | top end |
| COc1ccc(C(=O)C2C(=O)C(=O)N(Cc3ccco3)C2c2cccs2)cc1 (centres unmarked) [Structure 160] | human TSHR (Homo sapiens, UniProt P16473) | top end |
| COc1ccc(-c2nc3ccccc3c(=O)n2Cc2ccccc2)cc1COc1ccc(NC(C)=O)cc1 [Structure 17] | human TSHR (Homo sapiens, UniProt P16473) | midrange |
| COc1ccc(C2Nc3ccccc3C(=O)N2Cc2ccccc2C(F)(F)F)cc1COc1ccc(NC(C)=O)cc1 (centres unmarked) [Structure 265] | human TSHR (Homo sapiens, UniProt P16473) | midrange |
| COc1ccc(C2Cc3ccccc3C(=O)N2Cc2ccccc2)cc1COc1ccc(NC(C)=O)cc1 (centres unmarked) [Structure 76] | human TSHR (Homo sapiens, UniProt P16473) | midrange |
| COc1ccc(C2Nc3ccccc3C(=O)N2Cc2ccccc2)cc1COc1cccc(C)c1 (centres unmarked) [Structure 127] | human TSHR (Homo sapiens, UniProt P16473) | midrange |
| COc1ccc(C2Nc3ccccc3C(=O)N2Cc2ccccc2Cl)cc1COc1ccc(NC(C)=O)cc1 (centres unmarked) [Structure 273] | human TSHR (Homo sapiens, UniProt P16473) | bottom end |
| COc1ccc(CN(Cc2ccccc2)C(=O)c2ccccc2O)cc1 [Structure 169] | human TSHR (Homo sapiens, UniProt P16473) | top end |
| COc1ccc(C2Nc3ccccc3C(=O)N2Cc2cccc3ccccc23)cc1COc1ccc(NC(C)=O)cc1 (centres unmarked) [Structure 288] | human TSHR (Homo sapiens, UniProt P16473) | bottom end |

Incoming: Would you mind sorting COc1ccc(C(=O)N(Cc2cccs2)Cc2cccs2)c(O)c1 [Structure 108] into the appropriate category?
Outgoing: midrange

Incoming: Then what about the compound COc1ccc(C2Nc3ccc(NC(C)=O)cc3C(=O)N2Cc2ccccc2)cc1COc1ccc(NC(C)=O)cc1 (centres unmarked) [Structure 105] ?
Outgoing: midrange

Incoming: Then what about the compound COc1ccc(C2Nc3ccccc3C(=O)N2Cc2ccco2)cc1COc1ccc(NC(C)=O)cc1 (centres unmarked) [Structure 9] ?
Outgoing: midrange

Incoming: Then what about the compound COc1ccc(CN(Cc2ccccc2)C(=O)c2ccccc2N)cc1COc1ccc(NC(C)=O)cc1 [Structure 21] ?
Outgoing: top end

Values from patent US9458141B2
